- TESTED ON: Histamine H3 receptor (Mus musculus)
- ASSAY OVERVIEW: Histamine H3 receptor antagonist potency in vivo in mice after peroral administration
- Type: functional, organism-based
Categories are defined by ranges of ED50, namely zone 1: < 0.2 mg/kg; zone 2: ≥ 0.2 mg/kg and < 0.9 mg/kg; zone 3: ≥ 0.9 mg/kg

>>> cat("CCCCCC(=O)c1ccc(OCCCc2c[nH]cn2)cc1")
"zone 1"
>>> cat("CC(=O)/C=C/c1ccc(OCCCc2c[nH]cn2)cc1")
"zone 3"
>>> cat("CC(=O)c1ccc(OCCCc2c[nH]cn2)cc1F")
"zone 1"
>>> cat("c1nc(CCCOc2ccc3c(c2)CCCC3)c[nH]1")
"zone 3"
>>> cat("O=C(CCCN1CCc2[nH]c3ccc(F)cc3c2C1)c1ccc(OCCCc2c[nH]cn2)cc1")
"zone 3"
>>> cat("CC(C)C(=O)c1ccc(OCCCc2c[nH]cn2)cc1")
"zone 3"
>>> cat("CCCC(=O)c1ccc(OCCCc2c[nH]cn2)cc1")
"zone 1"
>>> cat("CC(=O)CCc1ccc(OCCCc2c[nH]cn2)cc1")
"zone 3"

Exam item: Where would O=C(c1ccc(OCCCc2c[nH]cn2)cc1)C1CCCC1 land among the classes by reported ED50?
Marked response: zone 2

Exam item: Where would O=C(O)/C=C/C(=O)O.O=C(c1ccc(OCCCc2c[nH]cn2)cc1)C1CC1 land among the classes by reported ED50?
Marked response: zone 1

Exam item: Where would COc1cc(OCCCc2c[nH]cn2)ccc1C(C)=O land among the classes by reported ED50?
Marked response: zone 3

Exam item: Where would O=C1CCc2cc(OCCCc3c[nH]cn3)ccc21 land among the classes by reported ED50?
Marked response: zone 3

Exam item: Where would O=C(c1ccc(OCCCc2c[nH]cn2)c([N+](=O)[O-])c1)C1CC1 land among the classes by reported ED50?
Marked response: zone 3
